Test system: CAKI-1 renal
PROTOCOL_DETAILS: NCI-60 one-dose screen, 48 h (100 = growth as untreated, 0 = no growth, -100 = all killed)
MEASUREMENT_CONDITIONS: 10 µM unless noted
Experimental: Growth inhibition of the CAKI-1 human tumor cell line is measured as a screen for anti-cancer activity. Cells are grown in 96 well plates and exposed to the test compound for 48 hours. Compounds are tested at a single concentration, which is 10^-5 M for most compounds. The reported endpoint is percent growth (GI% or GIPRCNT), where numbers from 0 - 100% represent growth inhibition, and numbers from -100% - 0 represent cell death. For example, a value of 40 represents 60% growth inhibition. […]
Compounds without any hit were thinned out: in the full panel of roughly 83,000, 20% have a hit. Calls of active or inactive are those of the source. How the source made its calls: active means growth percent below 10; inactive means the rest.
OBSERVATION_TYPE: growth

CC(C)(C)CC(C)(C)c1ccc(OCCOCCSC(=N)N)cc1 :: 65.3% (inactive)
Oc1ccc(Cl)cc1C(c1cc(Cl)ccc1O)C(Cl)(Cl)Cl :: 36.8% (inactive)
CCCCC(CCc1ccc([N+](=O)[O-])cc1)(C(C)=O)C(=O)OCC (stereo unspecified) :: 96.8% (inactive)

So, Nc1ccc(-c2ccc(N)c(S(=O)(=O)O)c2)cc1S(=O)(=O)O ? Its growth was 123% (inactive)

So, CN(C)c1ccc2cc3c(cc2c1)Oc1ccccc1N3.[Cl][Zn][Cl] ? Its growth was 54.2% (inactive)

So, CCCCCC/C=C1\CCC(CN2CCCC2)C1=O (stereo unspecified) ? Its growth was 102% (inactive)

====

Test system: RXF 393 renal
PROTOCOL_DETAILS: NCI-60 one-dose screen, 48 h
MEASUREMENT_CONDITIONS: 10 µM unless noted
Compounds without any hit were thinned out: in the full panel of roughly 83,000, 20% have a hit. Activity calls are given as the source filed them. How the source made its calls: active means growth percent below 10; inactive means the rest.
Select the correct class. Options are active, inactive and nothing else.

Sample answers from the record:
O=[N+]([O-])c1ccc(C(Br)c2ccc([N+](=O)[O-])cc2)cc1 :: inactive
CN(C)c1ccc(/C=C/c2nccc3ccccc23)cc1 :: inactive
COc1cc(-c2ccc(-[n+]3nc(-c4ccc([N+](=O)[O-])cc4)nn3-c3ccc([N+](=O)[O-])cc3)c(OC)c2)ccc1-[n+]1nc(-c2ccc([N+](=O)[O-])cc2)nn1-c1ccc([N+](=O)[O-])cc1 :: active

--- query ---
Recorded test call requested for Cc1ccc2cccc(OC(=O)Nc3cccc(C(F)(F)F)c3)c2n1 inactive

====

Test system: K-562 leukemia
PROTOCOL_DETAILS: NCI-60 one-dose screen, 48 h
MEASUREMENT_CONDITIONS: 10 µM unless noted
Compounds without any hit were thinned out: in the full panel of roughly 83,000, 20% have a hit. Active and inactive are the calls of the source. The calls were made as follows: active = growth percent below 10; inactive = the rest.
Select the correct class. Options are Yes (active), No (inactive) and nothing else.

COc1cc([C@@H]2c3cc4c(cc3[C@H](OC3OC5COC(c6ccccc6)OC5C(O)C3O)[C@H]3COC(=O)[C@H]23)OCO4)cc(OC)c1OC (stereo partly specified) :: No
Nc1nc(N)c2cc(Sc3cccc(C(F)(F)F)c3)ccc2n1 :: Yes

Recorded test call requested for Cn1c(-c2ccccc2)c(/C=C/C2=[N+](C)c3ccccc3C2(C)C)c2ccccc21 Yes

Recorded test call requested for S=C1SCN(Cc2cccs2)CN1Cc1cccs1 No

Recorded test call requested for NC(=S)N/N=C\c1nccc2c(C(F)(F)F)cccc12 Yes

Recorded test call requested for Cc1cc2nc(CC(=O)c3ccncc3)c(=O)[nH]c2cc1C No

Recorded test call requested for COc1ccc(C(Cn2ccnc2)Sc2ccc(Cl)c(Cl)c2)cc1 (stereo unspecified) No

Recorded test call requested for CCC(C)(O)Cc1ccc(Cl)cc1 (stereo unspecified) No

Recorded test call requested for CN1CCC(c2ccccc2)(c2ccccc2)C(=O)C1 No

Recorded test call requested for Oc1ccccc1N=Cc1ccccc1 No

Recorded test call requested for O=C1c2ccccc2C(=O)c2c(O)c(Cl)cc(O)c21 No

====

Tested on: BT-549 breast
PROTOCOL_DETAILS: NCI-60 one-dose screen, 48 h (100 = growth as untreated, 0 = no growth, -100 = all killed)
MEASUREMENT_CONDITIONS: 10 µM unless noted
Compounds without any hit were thinned out: in the full panel of roughly 83,000, 20% have a hit. Calls of active or inactive are those of the source. How the source made its calls: active means growth percent below 10; inactive means the rest.
Recorded growth for the following molecules

Solved entries:
O=C(c1ccc(O)c(Br)c1)c1ccc(O)c(Br)c1 :: 100% (inactive)
Cc1c(O)ccc(SC#N)c1C :: 104% (inactive)

So, CCc1oc2ccccc2c1C(=O)c1cc(Br)c(O)c(Br)c1 ? Its growth was 35.4% (inactive)

So, CC(C)Nc1ccc(Nc2ccc(NC(C)C)cc2)cc1 ? Its growth was 53.2% (inactive)

So, Clc1ccc(-n2ncc3c(NCCCN4CCOCC4)ncnc32)cc1 ? Its growth was 101% (inactive)

So, CC(/C=N/NC(N)=S)Cc1ccc(C(C)C)cc1 (stereo not drawn) ? Its growth was 64.1% (inactive)

So, CC1(O)CCCCCC1 ? Its growth was 96.1% (inactive)

====

Tested on: NCI/ADR-RES ovarian
PROTOCOL_DETAILS: NCI-60 one-dose screen, 48 h
MEASUREMENT_CONDITIONS: 10 µM unless noted
This is part of a sample that, as a whole, favours compounds with a hit. Of some 83,000 tested, about 20% had one in any assay. Activity calls are given as the source filed them. The calls were made as follows: active = growth percent below 10; inactive = the rest.
Select the correct class. Options are yes = active, no = inactive and nothing else.

Sample answers from the record:
CC(/C=N/NC(N)=S)Cc1ccc(C(C)C)cc1 (stereo unspecified) :: no
O=[N+]([O-])c1ccc([I+]c2ccccc2)cc1 :: no
CCCCCCCCCCCCNCCCc1ccccc1 :: no
Oc1ccccc1N=Cc1ccccc1 :: no
CCCCCCCCCCCC[S+](C)CC(=O)[O-] (stereo unspecified) :: no

Recorded test call requested for O=C1/C(=C/c2ccccn2)CCc2ccccc21 no

Recorded test call requested for CC(CSc1n[nH]c(=S)s1)c1ccccc1 (stereo unspecified) no

Recorded test call requested for O=C1C=CC(=O)N1C1CCCCCCCCCCC1 no

====

Test system: MDA-MB-435 melanoma
PROTOCOL_DETAILS: NCI-60 one-dose screen, 48 h
MEASUREMENT_CONDITIONS: 10 µM unless noted
This is part of a sample that, as a whole, favours compounds with a hit. Of some 83,000 tested, about 20% had one in any assay. Active and inactive are the calls of the source. How the source made its calls: active means growth percent below 10; inactive means the rest.
Select the correct class. Options are TRUE = active, FALSE = inactive and nothing else.

Sample answers from the record:
CCN(CC)CCNc1ccc([N+](=O)[O-])c2sc3ccccc3c(=O)c12 :: FALSE
CCC[CH2][Sn]1([CH2]CCC)[O]C2C(CO)OC(n3ccc(N)nc3=O)C2[O]1 (stereo not given) :: TRUE
CC(C)(C)CC(C)(C)c1ccc(OCCOCCSC(=N)N)cc1 :: TRUE
O=[n+]1c2ccccc2n([O-])c2cc(Cl)ccc21 :: FALSE
CCCCOS(=O)(=O)c1ccccc1 :: FALSE

Recorded test call requested for Cc1nn(CCO)c(C)c1N=[N+]([O-])c1c(C)nn(CCO)c1C TRUE

Recorded test call requested for COc1cc(NC(=O)C2=C(C)NC(C)=C(C(=O)Nc3cc(OC)c(Cl)cc3OC)C2c2cccc([N+](=O)[O-])c2)c(OC)cc1Cl TRUE

Recorded test call requested for CCN1/C(=C/C(C)=C/c2sc3ccc4ccccc4c3[n+]2CC)Sc2ccc3ccccc3c21 TRUE

Recorded test call requested for COc1cc(/C=C/C(=O)CC(=O)/C=C/c2ccc(O)c(OC)c2)ccc1O TRUE

Recorded test call requested for O=C1C=CC(=O)N1c1ccc(O)cc1 FALSE

====

Tested on: SNB-75 CNS
PROTOCOL_DETAILS: NCI-60 one-dose screen, 48 h
MEASUREMENT_CONDITIONS: 10 µM unless noted
Compounds without any hit were thinned out: in the full panel of roughly 83,000, 20% have a hit. Active and inactive are the calls of the source. The calls were made as follows: active = growth percent below 10; inactive = the rest.
Select the correct class. Options are true = active, false = inactive and nothing else.

Sample answers from the record:
O=C1/C(=C/c2ccccn2)CCc2ccccc21 :: false
NCCCN(CCCN)CCCNCc1c2ccccc2c(CNCCCN(CCCN)CCCN)c2ccccc12 :: false
CC1(C)OC2C(COC(c3ccccc3)(c3ccccc3)c3ccccc3)OC(c3c[nH]c4c(N)ncnc34)C2O1 (configuration not stated) :: false
OC(c1cc2ccc(C(F)(F)F)cc2c2cc(C(F)(F)F)ccc12)C1CCCCN1 (configuration not stated) :: true
CC(C)c1ccc(C(=O)OC2CCCC2)cc1 :: false

Recorded test call requested for O=[N+]([O-])C=C(c1ccccc1)c1ccccc1 false

Recorded test call requested for CC(=O)OC1CC2CCC1(C)C2(C)C (configuration not stated) false

Recorded test call requested for Cc1cccc2c(N)c3ccccc3nc12 true

Recorded test call requested for O=C(Nc1ccc(Cl)c(Cl)c1)OCc1ccco1 true

Recorded test call requested for Oc1cc(Cl)ccc1Cc1ccc(Cl)cc1O false

Recorded test call requested for c1ccc(C2NCCNC2c2ccccc2)cc1 (configuration not stated) false

Recorded test call requested for COc1ccc2c(c1OC)OCC(CN(C)C)C2=O (configuration not stated) false
